Data origin: patent US10493153B2

Listing of recorded λem by entry.
test: Fluorescence emission spectroscopy; format: physicochemical; conditions: emission maximum
Number first, unit second: that is the form wanted.

| chemical_smiles | recorded_result |
| --- | --- |
| CC1=CC(C)=[N+]2C1=C(COC(=O)Cc1ccccc1)c1c(C)cc(C)n1[B-]2(C)C | 550 nm |
| CC1=C(I)C(C)=[N+]2C1=C(COC(=O)Cc1ccccc1)c1c(C)c(I)c(C)n1[B-]2(C)C | 572 nm |
| CC[B-]1(CC)n2c(C)cc(C)c2C(COC(=O)Cc2ccccc2)=C2C(C)=CC(C)=[N+]21 | 550 nm |
| CC1=CC(C)=[N+]2C1=C(COC(=O)Cc1ccccc1)c1c(C)cc(C)n1[B-]2(c1ccccc1)c1ccccc1 | 562 nm |

Alright, here's another compound for you.
Prompt: What does the record list as λem for `CC1=CC(C)=[N+]2C1=C(CCl)c1c(C)cc(C)n1[B-]2(C)C` ?
Response: 556 nm
